Reference for the values: patent US11530244B2

This section presents compounds with their documented IC50 values.
# TARGET UNDER TEST: human PCSK9 / human LDLR EGFa domain interaction (Homo sapiens (Human), UniProt Q8NBP7)
# Sequence (Q8NBP7 153-692): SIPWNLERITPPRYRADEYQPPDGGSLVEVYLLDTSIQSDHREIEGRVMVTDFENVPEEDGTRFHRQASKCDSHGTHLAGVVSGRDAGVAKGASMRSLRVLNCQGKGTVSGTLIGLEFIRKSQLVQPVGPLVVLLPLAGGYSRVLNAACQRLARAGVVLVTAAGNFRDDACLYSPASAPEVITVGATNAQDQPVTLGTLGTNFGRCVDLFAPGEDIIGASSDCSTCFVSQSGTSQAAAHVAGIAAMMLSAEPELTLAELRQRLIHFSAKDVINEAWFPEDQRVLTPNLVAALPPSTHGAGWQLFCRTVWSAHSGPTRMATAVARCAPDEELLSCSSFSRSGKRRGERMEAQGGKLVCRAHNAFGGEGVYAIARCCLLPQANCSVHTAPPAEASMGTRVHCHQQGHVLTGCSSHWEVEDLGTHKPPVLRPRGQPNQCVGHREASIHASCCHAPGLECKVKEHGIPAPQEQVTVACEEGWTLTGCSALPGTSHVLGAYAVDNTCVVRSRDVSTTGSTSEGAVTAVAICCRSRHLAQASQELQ
# Sequence (Q8NBP7 31-152 partner): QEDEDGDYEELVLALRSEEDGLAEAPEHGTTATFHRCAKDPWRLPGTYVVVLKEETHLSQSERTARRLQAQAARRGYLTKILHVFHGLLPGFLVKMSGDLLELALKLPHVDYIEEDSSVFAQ
# MEASUREMENT DESCRIPTION: TR-FRET assay of inhibition of the PCSK9-LDLR protein-protein interaction
# Format: binding
# PARTICULARS: TR-FRET, 20 nM human PCSK9, 20 nM human LDLR EGFa domain, 2 hours room temperature; read-out: IC50
Starred links: 1 amine or outer side, 2 acyl side, 3 side chain; linkers in the order of their positions; H or OH if unused. Positions of bridges follow the written chain, without caps; N, C: chain ends. Non-standard residues stand in square brackets, D forms with d. Residues, ends and D or L forms follow the SMILES beside them. Trp(5-F) = N[C@@H](Cc1c[nH]c2ccc(F)cc12)C(=O)O; mXylylene(5-F) = Fc1cc(C[*:1])cc(C[*:2])c1; mXylylene = c1cc(C[*:1])cc(C[*:2])c1; β3hT = C[C@@H](O)[C@H](N)CC(=O)O; αMeP = C[C@@]1(C(=O)O)CCCN1; Mpa = O=C(O)CCS

>>> value_observed("C[C@@H](O)[C@H]1CC(=O)N[C@@H](Cc2ccc(O)cc2)C(=O)N2CCC[C@@]2(C)C(=O)N[C@H](C(N)=O)CSCc2cccc(c2)CSCCC(=O)N[C@@H](CCCCN)C(=O)NCC(=O)N[C@@H](Cc2c[nH]c3ccc(F)cc23)C(=O)N[C@@H](Cc2c[nH]c3ccc(F)cc23)C(=O)N2CCC[C@H]2C(=O)N1 [Compound 051] ([Mpa]KG[Trp(5-F)][Trp(5-F)]P[β3hT]Y[αMeP]C-NH2; linker 1-10 via mXylylene)")
"0.0001 to 0.1 µM"
>>> value_observed("COc1ccc(C[C@@H]2NC(=O)[C@@H]3CCC/C=C\\CO[C@H]4C[C@@H](C(=O)N3)N(C4)C(=O)[C@H](Cc3c[nH]c4ccc(F)cc34)NC(=O)[C@H](Cc3c[nH]c4ccc(F)cc34)NC(=O)[C@@H](C)NC(=O)[C@H](CCCCN)NC(=O)CCSCc3cccc(c3)CSC[C@@H](C(N)=O)NC(=O)[C@]3(C)CCCN3C2=O)cc1")
"1 to 12.1 µM"

Reported IC50, compound COc1ccc(C[C@@H]2NC(=O)[C@H](Cc3cnc[nH]3)NC(=O)[C@H](CC(=O)O)NC(=O)[C@H](Cc3c[nH]c4ccc(F)cc34)NC(=O)[C@H](Cc3c[nH]c4ccc(F)cc34)NC(=O)[C@@H](C)NC(=O)[C@H](CCCCN)NC(=O)CCSCc3cc(F)cc(c3)CSC[C@@H](C(N)=O)NC(=O)[C@]3(C)CCCN3C2=O)cc1 [Compound 338] ([Mpa]K[dA][Trp(5-F)][Trp(5-F)]DHY(Me)[αMeP]C-NH2; linker 1-10 via mXylylene(5-F)) : ____
1 to 12.1 µM

---

# TARGET UNDER TEST: human PCSK9 / human LDLR EGFa domain interaction (Homo sapiens (Human), UniProt Q8NBP7)
# MEASUREMENT DESCRIPTION: TR-FRET assay of inhibition of the PCSK9-LDLR protein-protein interaction
# Assay type: binding
# PARTICULARS: TR-FRET, 20 nM human PCSK9, 20 nM human LDLR EGFa domain, 2 hours room temperature; read-out: IC50
pIC50: −log10 of the molar value. Starred links: 1 amine or outer side, 2 acyl side, 3 side chain; linkers in the order of their positions; H or OH if unused. Positions of bridges follow the written chain, without caps; N, C: chain ends. Non-standard residues stand in square brackets, D forms with d. Residues, ends and D or L forms follow the SMILES beside them. Triazole bridges read from a SMILES are 1,4-linked. NHCH2(1,3-C6H4)CH2CO = O=C(Cc1cccc(CN[*:1])c1)[*:2]; Phe(4-COOH) = N[C@@H](Cc1ccc(C(=O)O)cc1)C(=O)O; Trp(5-F) = N[C@@H](Cc1c[nH]c2ccc(F)cc12)C(=O)O; X10 = O=C(CCSCc1ccc2ccc(CSCCN[*:1])cc2c1)[*:2]; X13 = O=C(CCCCc1cccc(CCCCN[*:1])c1)[*:2]; Lys(N3) = [N-]=[N+]=NCCCC[C@H](N)C(=O)O; mXylylene = c1cc(C[*:1])cc(C[*:2])c1; αMeP = C[C@@]1(C(=O)O)CCCN1; Hpra = C#CCC[C@H](N)C(=O)O; Mpa = O=C(O)CCS
REPORTED PROPERTY: pIC50

Worked examples, 4 molecules total:
>>> value_observed("COc1ccc(C[C@@H]2NC(=O)[C@H](Cc3cnc[nH]3)NC(=O)[C@H](CC(=O)O)NC(=O)[C@H](Cc3c[nH]c4ccc(F)cc34)NC(=O)[C@H](Cc3c[nH]c4ccc(F)cc34)NC(=O)[C@@H](C)NC(=O)[C@H](CCCCN)NC(=O)CCSCc3ccc4ccc(cc4c3)CSCCNC(=O)[C@]3(C)CCCN3C2=O)cc1 [Compound 405] (cyclo(DHY(Me)[αMeP][X10]K[dA][Trp(5-F)][Trp(5-F)]))")
"7.00 to 10.00"
>>> value_observed("COc1ccc(C[C@@H]2NC(=O)[C@H](Cc3cnc[nH]3)NC(=O)[C@H](CC(=O)O)NC(=O)[C@H](Cc3c[nH]c4ccc(F)cc34)NC(=O)[C@H](Cc3c[nH]c4ccc(F)cc34)NC(=O)[C@@H](C)NC(=O)Cc3cccc(c3)CNC(=O)c3ccc(cc3)C[C@@H](C(N)=O)NC(=O)[C@]3(C)CCCN3C2=O)cc1 [Compound 390] ([NHCH2(1,3-C6H4)CH2CO][dA][Trp(5-F)][Trp(5-F)]DHY(Me)[αMeP][Phe(4-COOH)]-NH2; lactam N-9)")
"7.00 to 10.00"
>>> value_observed("CC(C)[C@H]1NC(=O)[C@H](CCCCN)NC(=O)CCSCc2cccc(c2)CSC[C@@H](C(N)=O)NC(=O)[C@]2(C)CCCN2C(=O)[C@H](Cc2ccc(O)cc2)NC(=O)[C@H]([C@@H](C)O)NC(=O)[C@@H]2CCCN2C(=O)[C@H](Cc2c[nH]c3ccc(F)cc23)NC(=O)[C@H](Cc2c[nH]c3ccc(F)cc23)NC1=O [Compound 052] ([Mpa]K[dV][Trp(5-F)][Trp(5-F)]PTY[αMeP]C-NH2; linker 1-10 via mXylylene)")
"4.92 to 6.00"
>>> value_observed("CC(=O)N[C@H]1CCc2cn(nn2)CCCC[C@@H](C(N)=O)NC(=O)[C@]2(C)CCCN2C(=O)[C@H](Cc2ccc(O)cc2)NC(=O)[C@H](Cc2cnc[nH]2)NC(=O)[C@H](CC(=O)O)NC(=O)[C@H](Cc2c[nH]c3ccc(F)cc23)NC(=O)[C@H](Cc2c[nH]c3ccc(F)cc23)NC(=O)CNC(=O)[C@H](C)NC1=O [Compound 339] (Ac-[Hpra]AG[Trp(5-F)][Trp(5-F)]DHY[αMeP][Lys(N3)]-NH2; triazole 1-10)")
"4.92 to 6.00"

Please find the next molecule below.
Can you look up pIC50 on human PCSK9 / human LDLR EGFa domain interaction (Homo sapiens (Human), UniProt Q8NBP7) for COc1ccc(C[C@@H]2NC(=O)[C@H]([C@@H](C)O)NC(=O)[C@@H]3CSCc4cccc(c4)CSC[C@H](NC(=O)[C@@H](C)NC(=O)[C@H](C)NC(=O)CCCCc4cccc(c4)CCCCNC(=O)[C@@H]4CCCN4C2=O)C(=O)N[C@@H](Cc2c[nH]c4ccc(F)cc24)C(=O)N3)cc1 [Compound 497] (cyclo(A[dA]C[Trp(5-F)]CTY(Me)P[X13]); linker 3-5 via mXylylene) ?
6.00 to 7.00

---

# TARGET UNDER TEST: PCSK9 (Homo sapiens (Human), UniProt Q8NBP7)
# MEASUREMENT DESCRIPTION: PCSK9 Alexa FRET Plus assay (displacement of AlexaFluor647 tagged cyclic peptide Reagent B)
# Type: binding
# PARTICULARS: Alexa FRET Plus, 0.5 nM PCSK9, 960 nM AF cyclic peptide Reagent B; read-out: IC50
# Method: A solution containing 1 nM biotinylated PCSK9+2.5 nM Lance Streptavidin Europium (Strep-Eu) was made in 50 mM HEPES pH 7.4, 0.15 M NaCl, 5 mM CaCl2), 0.01% BSA, and 0.01% Surfactant P20. […] The reaction was incubated at room temperature for at least two hours prior to fluorescence measurements using an Envision Multilabel Reader. IC50 values were determined by fitting data to a sigmoidal dose-response curve using nonlinear regression. […]
pIC50: −log10 of the molar value. Starred links: 1 amine or outer side, 2 acyl side, 3 side chain; linkers in the order of their positions; H or OH if unused. Positions of bridges follow the written chain, without caps; N, C: chain ends. Non-standard residues stand in square brackets, D forms with d. Residues, ends and D or L forms follow the SMILES beside them. Trp(5-F) = N[C@@H](Cc1c[nH]c2ccc(F)cc12)C(=O)O; mXylylene = c1cc(C[*:1])cc(C[*:2])c1; PEG4 = NCCOCCOCCOCCOCCC(=O)O; αMeP = C[C@@]1(C(=O)O)CCCN1; Mpa = O=C(O)CCS
REPORTED PROPERTY: pIC50

Worked examples, 2 compounds total:
>>> value_observed("COc1ccc(C[C@@H]2NC(=O)[C@@H]3CCCC/C=C\\CC[C@@]4(CCCN4C2=O)C(=O)NCCSCc2cccc(c2)CSCCC(=O)N[C@@H](C)C(=O)N[C@H](C)C(=O)N[C@H]2Cc4cccc(c4)CNC(=O)CC[C@@H](C(=O)N3)N3C(=O)[C@@H](NC2=O)C3c2c[nH]c3ccc(F)cc23)cc1 (stereo partly drawn)")
"5.30 to 6.30"
>>> value_observed("C[C@@]12CCCN1C(=O)[C@H](Cc1ccc(O)cc1)NC(=O)[C@H](Cc1cnc[nH]1)NC(=O)[C@H](CC(=O)O)NC(=O)[C@H](Cc1c[nH]c3ccc(F)cc13)NC(=O)[C@H](Cc1c[nH]c3ccc(F)cc13)NC(=O)CNC(=O)[C@H](CCCCNC(=O)CCOCCOCCOCCOCCN)NC(=O)CCSCc1cccc(c1)CSC[C@@H](C(N)=O)NC2=O [Compound 485] ([Mpa]K(PEG4)G[Trp(5-F)][Trp(5-F)]DHY[αMeP]C-NH2; linker 1-10 via mXylylene)")
"7.00 to 10.00"

Please find the next compound below.
Reported pIC50, compound CC(C)C[C@@H]1NC(=O)[C@@H]2CCCN2C(=O)[C@H](Cc2c[nH]c3ccc(F)cc23)NC(=O)[C@H](Cc2c[nH]c3ccc(F)cc23)NC(=O)CNC(=O)[C@H](CCCCN)NC(=O)CCSCc2cccc(c2)CSC[C@@H](C(N)=O)NC(=O)[C@]2(C)CCCN2C(=O)[C@H](Cc2ccc(O)cc2)NC1=O [Compound 004] ([Mpa]KG[Trp(5-F)][Trp(5-F)]PLY[αMeP]C-NH2; linker 1-10 via mXylylene) : ____
6.30 to 7.00
